# System: gramicidin D channels in DC22:1PC lipid vesicles (bilayer-modifying potency)
# Measurement Description: initial Tl+ fluorescence quench rate relative to no-drug control (NormRate, gramicidin monomer-dimer shift) (ratio (fold of control)); higher = stronger bilayer-modifying effect (equilibrium shifted toward conducting dimers), active = 1.5 or more
# Cond: 10 µM; lipid concentration 50 µM; temperature: 25 °C
Can you answer with just one of these options? 1.0 for active, 0.0 for inactive

>  <Structure Smiles>
NC(=O)c1cc(Br)ccc1OCCOc1ccccc1

>  <Label Value>
0.0

$$$$
>  <Structure Smiles>
Cc1cc(Nc2ccc(C(F)(F)F)cc2)n2ccnc2n1

>  <Label Value>
0.0

$$$$
>  <Structure Smiles>
Nc1ccc2ncnc(Nc3ccc(OCc4cccc(F)c4)c(Cl)c3)c2c1

>  <Label Value>
1.0

$$$$
>  <Structure Smiles>
Clc1ccc(-n2cc(COc3ccnc4ccccc34)nn2)cc1

>  <Label Value>
0.0

$$$$
>  <Structure Smiles>
CC1=Nc2ccc(Cl)cc2[C@H](c2ccccc2)N1CCNC(=O)CN(C)C

>  <Label Value>
0.0

$$$$

Prompt: # lookup: test call for Cc1nc(-c2cccc(NCc3ccccc3)c2)[nH]c1C
Response: 0.0

Prompt: # lookup: test call for C[C@H]1C[C@@H]1C(=O)NC1CCN(CC2(c3ccccc3)CCCCC2)CC1
Response: 0.0

Prompt: # lookup: test call for COc1cc(NC(=O)Cc2nn(C)c(=O)c3ccccc23)ccc1Cl
Response: 0.0

Prompt: # lookup: test call for Cc1ncc(-c2ccnc(Nc3ccc(S(C)(=O)=O)cc3)n2)n1C(C)C
Response: 0.0

Prompt: # lookup: test call for CC(C)(C)CN1C(=O)C(c2ccccc2)(c2ccccc2)N=C1N
Response: 1.0

Prompt: # lookup: test call for CN1CCN(c2cc(-c3ccc(F)cc3)nc(-c3ccncc3)n2)CC1
Response: 0.0

Prompt: # lookup: test call for Cc1ccc(S(=O)(=O)n2cc(-c3ccnc(N)c3)c3cc(Br)cnc32)cc1
Response: 1.0

These entries and their values trace back to the supplement of paper PMC9948646.
